experiment summary: CCTE_Shafer_MEA_acute_per_network_burst_spike_number_std: CCTE's Neural Acute Assay for Standard Deviation of Number of Spikes in a Network Burst, Shafer Lab (AID 2284020);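 also: fitted for decrease in spike-number SD versus DMSO so actives lower it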
The source made the active and inactive calls. The calls were made as follows: active = hit-call score of the fitted dose curve at least 0.9, where 1 is the maximum; inactive = score below 0.9. Peptide text beside a SMILES is read from it.
Log the outcome using a class from T = active, F = inactive

Q: Recorded call for Oc1ccccc1Cc1ccccc1O ?
Ans: F

Q: Same again, this time with COC(=O)[C@H](Cc1ccccc1)NC(=O)[C@@H](N)CC(=O)O (H-Asp-Phe-OMe)
Ans: F

Q: Same again, this time with CCCC(C)C(=O)OCC (stereo unspecified)
Ans: F

Q: Same again, this time with Nc1nc(N)nc(-c2ccccc2)n1
Ans: F

Q: Same again, this time with CC1(C)CC(O)CC(C)(C)N1[O]
Ans: F

Shifting focus to the compound that follows.
Q: Recorded call for CCCCCCCCCCCC(=O)N(C)CC(=O)O ?
Ans: T

* * *

experimental target: human Peripheral-type Benzodiazepine Receptor (PBR), TSPO (gene 706)
experiment summary: NVS_MP_hPBR: NovaScreen (NVS) Membrane Protein Assay for human Peripheral-type Benzodiazepine Receptor (PBR) (AID 2283331);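 also: hits reduce radioligand binding relative to DMSO baseline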
Inconclusive results are not listed. Active and inactive are the calls of the source. The calls were made as follows: active = hit-call score of the fitted dose curve at least 0.9, where 1 is the maximum; inconclusive = response in the unintended direction; inactive = score below 0.9.
Please provide measured AC50 for the entries that follow.

Q: Give AC50 (human Peripheral-type Benzodiazepine Receptor (PBR), TSPO (gene 706)) of the following molecule: COC(OC)(C(=O)c1ccccc1)c1ccccc1
Ans: 21.9 µM (active)

Q: Same again, this time with CCCCC/C=C\C/C=C\CCCCCCCC(=O)O
Ans: 5.35 µM (active)

Q: Same again, this time with C=C1C[C@H]2[C@@H]3C=C(C)C4=CC(=O)CC[C@]4(C)[C@H]3CC[C@]2(C)[C@@]1(OC(C)=O)C(C)=O
Ans: 0.732 µM (active)

Q: Same again, this time with CCOC(=O)C1=NOC(c2ccccc2)(c2ccccc2)C1
Ans: 8.19 µM (active)

Please examine the following record next.
Q: Give AC50 (human Peripheral-type Benzodiazepine Receptor (PBR), TSPO (gene 706)) of the following molecule: C/C=C/C=C/CCCCCCCO
Ans: 12.2 µM (active)

* * *

experiment summary: ATG_TCF_b_cat_CIS: Attagene CIS-FACTORIAL HepG2 Assay for human T-Cell-Factor with beta-catenin (TCF/b-cat) (AID 2282965)
condition notes: HepG2 TCF/beta-catenin cis-reporter transcription, actives raise or lower the signal
Active and inactive are the calls of the source. How the source made its calls: active means hit-call score of the fitted dose curve at least 0.9, where 1 is the maximum; inactive means score below 0.9.
Log the outcome using a class from active, inactive

Q: Recorded call for CCCCCCOc1ccc(N)cc1 ?
Ans: inactive

Q: Same again, this time with Oc1ccc(/C=C/c2cc(O)cc(O)c2)cc1
Ans: active

Q: Same again, this time with CCCC(C)C(=O)OCC (stereo not given)
Ans: inactive

Q: Same again, this time with CCCCCCOC(=O)CCCCC(=O)OCCCCCC
Ans: inactive

Q: Same again, this time with Nc1nc(N)nc(-c2ccccc2)n1
Ans: inactive

Q: Same again, this time with CCCCOC(=O)C(C)CC (stereo not given)
Ans: inactive

Q: Same again, this time with C[Si]1(C)O[Si](C)(C)O[Si](C)(C)O[Si](C)(C)O[Si](C)(C)O1
Ans: inactive

Q: Same again, this time with C=CCOC(=O)c1ccc(C(=O)OCC=C)c(C(=O)OCC=C)c1
Ans: inactive

Q: Same again, this time with CCC[Si](OC)(OC)OC
Ans: inactive
